Molecular target: glucocorticoid receptor (GR) (Homo sapiens)
Construct: endogenous in cells
Assay: GR Ligand Binding Assay (3H-dexamethasone displacement, HeLa cell lysate)
Conditions: 3H-DEX trace, DEX as reference, read-out: GR BIND Ki
Lab note: cut-off is 8 nM. Strictly less in Ki is 1. Exactly 8 nM or more is -1.

q: Hi there! Is Ki for C[C@]12Cc3cnn(-c4ccc(F)cc4)c3C=C1CC[C@@]2(CO)CC(O)c1ccc(F)cn1 (single isomer, unassigned) [Example 22a] below 8 nM, do you know?
a: 1

q: Is Ki of C[C@]12Cc3cnn(-c4ccc(F)cc4)c3C=C1CC[C@@]2(CO)CC(O)C1CC1 (single isomer, unassigned) [Example 20a] strictly below 8 nM?
a: -1

q: Dear colleague, could you confirm whether Ki of Cc1ccc(C(O)C[C@]2(CO)CCC3=Cc4c(cnn4-c4ccc(F)cc4)C[C@@]32C)cc1 (single isomer, unassigned) [Example 2a] falls below 8 nM? Thanks.
a: 1

q: For C[C@]12Cc3cnn(-c4ccc(F)cc4)c3C=C1CC[C@@]2(CO)CC(O)c1ccccn1 (single isomer, unassigned) [Example 1b] , is the recorded Ki below the cut-off of 8 nM?
a: 1

q: Strictly below 8 nM in Ki? C[C@]12Cc3cnn(-c4cccc(F)c4)c3C=C1CC[C@@]2(CO)CC(O)c1ccccn1 (single isomer, unassigned) [Example 19b]
a: -1

q: State whether 8 nM exceeds Ki recorded for C[C@]12Cc3cnn(-c4ccc(F)cc4)c3C=C1CC[C@@]2(CO)CC1OC(=O)c2ccccc21 (single isomer, unassigned) [Example 12a] .
a: 1

q: Strictly below 8 nM: is that where Ki of COc1cccnc1C(O)C[C@]1(CO)CCC2=Cc3c(cnn3-c3ccc(F)cc3)C[C@@]21C (single isomer, unassigned) [Example 21b] sits?
a: 1

q: Decide: Ki of C[C@]12Cc3cnn(-c4ccc(F)cc4)c3C=C1CC[C@@]2(CO)CC(O)c1ccncc1 (single isomer, unassigned) [Example 17b] strictly below 8 nM?
a: 1

q: # strict comparison: is reported Ki < 8 nM? input = C[C@]12Cc3cnn(-c4ccc(F)cc4)c3C=C1CC[C@@]2(CO)CC(O)c1cc(F)cc(Cl)c1 (single isomer, unassigned) [Example 6a]
a: 1

q: Item CC(C)C(O)C[C@]1(CO)CCC2=Cc3c(cnn3-c3ccc(F)cc3)C[C@@]21C (single isomer, unassigned) [Example 14b] : Ki beneath 8 nM, strictly?
a: -1

* * *

Target: human GR (Homo sapiens, UniProt P04150)
Construct: naturally expresses the human GR; endogenous in cells
Sequence (P04150 1-777): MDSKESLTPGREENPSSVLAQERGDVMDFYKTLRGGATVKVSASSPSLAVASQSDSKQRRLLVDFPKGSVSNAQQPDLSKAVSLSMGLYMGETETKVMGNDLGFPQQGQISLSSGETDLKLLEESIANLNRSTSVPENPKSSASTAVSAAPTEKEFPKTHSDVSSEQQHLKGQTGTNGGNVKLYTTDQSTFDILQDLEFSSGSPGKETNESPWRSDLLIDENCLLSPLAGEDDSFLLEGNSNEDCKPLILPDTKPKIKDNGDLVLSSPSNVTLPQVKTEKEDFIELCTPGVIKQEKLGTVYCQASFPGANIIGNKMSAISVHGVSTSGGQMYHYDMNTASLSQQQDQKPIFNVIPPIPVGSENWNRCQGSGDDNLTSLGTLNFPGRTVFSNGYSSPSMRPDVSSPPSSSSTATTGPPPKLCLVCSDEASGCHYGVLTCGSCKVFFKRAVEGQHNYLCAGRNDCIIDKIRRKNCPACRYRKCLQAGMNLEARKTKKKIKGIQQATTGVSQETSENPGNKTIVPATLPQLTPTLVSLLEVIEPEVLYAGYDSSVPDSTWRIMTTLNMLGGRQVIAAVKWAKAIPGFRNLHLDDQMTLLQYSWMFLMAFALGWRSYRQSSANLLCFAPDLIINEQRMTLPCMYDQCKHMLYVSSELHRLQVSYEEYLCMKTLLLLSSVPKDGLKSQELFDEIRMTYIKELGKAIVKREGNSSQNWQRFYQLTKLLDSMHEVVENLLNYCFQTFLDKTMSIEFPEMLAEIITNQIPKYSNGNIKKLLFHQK
Assay: Transrepression Assay (GITAR), TNFα-β-lactamase reporter in U937 cells
Assay type: cell-based
Settings: activity repressed by 100 nM dexamethasone set as 100%
Rule for this label: fulfilled means Transrepression U937 Cells GITAR Emax (%) is less than 90%; not fulfilled means Transrepression U937 Cells GITAR Emax (%) is at least 90%.

q: Find out if reported Transrepression U937 Cells GITAR Emax (%) for C[C@]12Cc3cnn(-c4ccc(F)cc4)c3C=C1CC[C@@]2(CO)CC(O)c1ccccc1Cl (single isomer, unassigned) is less than 90%
a: not fulfilled

q: Given C[C@]12Cc3cnn(-c4ccc(F)cc4)c3C=C1CC[C@@]2(CO)CC(O)c1ncccc1F (single isomer, unassigned) [Example 10b] , is recorded Transrepression U937 Cells GITAR Emax (%) strictly lower than 90%?
a: not fulfilled

q: Could you please tell me whether Transrepression U937 Cells GITAR Emax (%) recorded for COc1cccnc1C(O)C[C@]1(CO)CCC2=Cc3c(cnn3-c3cccc(F)c3)C[C@@]21C (single isomer, unassigned) [Example 26a] is less than 90%?
a: fulfilled

q: # strict comparison: is reported Transrepression U937 Cells GITAR Emax (%) < 90%? input = C[C@]12Cc3cnn(-c4ccc(F)cc4)c3C=C1CC[C@@]2(CO)CC(O)c1cc(F)cc(Cl)c1 (single isomer, unassigned)
a: not fulfilled

q: Quick check: does C[C@]12Cc3cnn(-c4ccccc4)c3C=C1CC[C@@]2(CO)CC(O)c1ccccn1 (single isomer, unassigned) [Example 23b] have Transrepression U937 Cells GITAR Emax (%) under 90%?
a: fulfilled
